Test system: SW-620 colon
Experiment: NCI-60 one-dose screen, 48 h (100 = growth as untreated, 0 = no growth, -100 = all killed)
Conditions: 10 µM unless noted
About 83,000 compounds went through this panel and 20% of them were active in at least one assay; those are over-represented in the sample as a whole.
measured attribute: growth (%)
A number alone suffices; assume %.

Study these solved cases before continuing.
| compound | value unit | growth |
| --- | --- | --- |
| NC(=S)NS(=O)(=O)c1ccc(N)cc1 | % | 110 |
| COc1cc(C(=O)N/N=C/c2ccc(N(C)C)cc2)cc(OC)c1OC | % | 26.2 |
| O=[N+]([O-])c1ccc(-n2[nH]nnc2=S)cc1 | % | 103 |

Task item: Given O=C1c2c(O)cc(O)cc2OC(c2ccc(O)c(O)c2)C1O (stereo not drawn) , state its recorded growth.
Reply: 104

Task item: Field entry: CC(O)Cn1cnc2c1c(=O)n(C)c(=O)n2C (stereo not drawn)
Reply: 113

Task item: Field entry: Nc1ccc2ccc(N)cc2c1
Reply: 87.5

* * *

Reported growth values for the following compounds.
Test system: A549/ATCC NSCLC
Test: NCI-60 one-dose screen, 48 h (100 = growth as untreated, 0 = no growth, -100 = all killed)
Details: 10 µM unless noted
This is part of a sample that, as a whole, favours compounds with a hit. Of some 83,000 tested, about 20% had one in any assay.
A number alone suffices; assume %.

| compound | system under test | growth, % |
| --- | --- | --- |
| CCN(CC)C(=O)c1cccnc1 | A549/ATCC NSCLC | 102 |
| Cc1c(Cl)cccc1NCN1C(=O)c2ccccc2C1=O | A549/ATCC NSCLC | 99.1 |
| Cc1ccc(S(=O)(=O)NCN2C(=O)c3ccccc3C2=O)cc1 | A549/ATCC NSCLC | 99 |
| CC(/C=N/N1C(=O)c2ccccc2C1=O)c1ccccc1 (configuration not stated) | A549/ATCC NSCLC | 88.3 |

Task item: Given N#C/C(=C1C=C/C(=N/O)C(Br)=C/1)c1ccccc1 , state its recorded growth.
Reply: 27.6

Task item: Field entry: Cn1c(SSc2ccc(-c3cccnc3)n2C)ccc1-c1cccnc1
Reply: 103

Task item: Field entry: NC(=S)N/N=C(\c1ccc(Br)cc1)C1CC1
Reply: 103

Task item: Field entry: CC(=O)C(/C=N/C(N)=O)=C(/C)O
Reply: 99.6

* * *

System: T-47D breast
Assay: NCI-60 one-dose screen, 48 h (100 = growth as untreated, 0 = no growth, -100 = all killed)
Conditions: 10 µM unless noted
The panel holds about 83,000 compounds, 20% with a hit somewhere; the sample as a whole holds those more often.
measured attribute: growth (%)
A number alone suffices; assume %.

Study these solved cases before continuing.
| compound | growth, % |
| --- | --- |
| CC1=C[C@H]2c3c(c(O)c(O)c4oc5cc(O)cc(O)c5c(=O)c34)[C@H](c3cc(O)c(O)c4oc5cc(O)cc(O)c5c(=O)c34)[C@H]2C(C)(C)C1 | -1.57 |
| CCOC(=O)C(CNc1ccccc1)C(=O)OCC | 105 |
| CC1=NN(c2ccccc2)C(=O)C1C(=O)c1ccccc1 (stereo unspecified) | 86.9 |
| CC1=C(/C=C/C(C)=C/C=C/C(C)=C/C(=O)Nc2ccc(O)cc2)C(C)(C)CCC1 | 5.78 |
| Nc1ccccc1SC1CC(=O)N(c2cccc3ccccc23)C1=O (stereo unspecified) | 90.4 |

Task item: Given Cc1ccc(S(=O)(=O)NCN2C(=O)c3ccccc3C2=O)cc1 , state its recorded growth.
Reply: 110

Task item: Field entry: OCc1ccccn1
Reply: 107

Task item: Field entry: N#C/C(=C/c1c(O)ccc2ccccc12)C(N)=O
Reply: 87.5

Task item: Field entry: CC12CCC(CC1)C(C)(C)O2
Reply: 97.9

Task item: Field entry: S=C1SCN(Cc2ccccc2)CN1Cc1ccccc1
Reply: 41.4

Task item: Field entry: Cc1n[nH]c(=O)n(/N=C\c2c[nH]c3ccccc23)c1=O
Reply: 102

* * *

Tested on: T-47D breast
Assay: NCI-60 one-dose screen, 48 h
Conditions: 10 µM unless noted
Method: Growth inhibition of the T-47D human tumor cell line is measured as a screen for anti-cancer activity. Cells are grown in 96 well plates and exposed to the test compound for 48 hours. Compounds are tested at a single concentration, which is 10^-5 M for most compounds. The reported endpoint is percent growth (GI% or GIPRCNT), where numbers from 0 - 100% represent growth inhibition, and numbers from -100% - 0 represent cell death. For example, a value of 40 represents 60% growth inhibition. […]
About 83,000 compounds went through this panel and 20% of them were active in at least one assay; those are over-represented in the sample as a whole. Activity calls are given as the source filed them. The calls were made as follows: active = growth percent below 10; inactive = the rest.
Your reply should match one of these outcome classes. active, inactive

Use the examples below as a reference point.
| compound | group label |
| --- | --- |
| Fc1ccccc1Nc1n[nH]c(=S)s1 | inactive |
| NC(=O)c1ccccc1OCC(O)CO (stereo not drawn) | inactive |
| CCN(CC)C(=O)c1cccnc1 | inactive |

Task item: Test call for this compound, please: Nc1ccc2ccc(N)cc2c1
Reply: inactive

Task item: Field entry: CC(C)Cc1ccc(C(C)C(=O)NCc2ccc(Cn3c(=O)sn(CCCI)c3=O)cc2)cc1 (stereo not drawn)
Reply: active

* * *

Tested on: IGROV1 ovarian
Experiment: NCI-60 one-dose screen, 48 h (100 = growth as untreated, 0 = no growth, -100 = all killed)
Conditions: 10 µM unless noted
The panel holds about 83,000 compounds, 20% with a hit somewhere; the sample as a whole holds those more often.
measured attribute: growth (%)
A number alone suffices; assume %.

Study these solved cases before continuing.
| compound | growth / % |
| --- | --- |
| COc1ccc2ccccc2c1/C=N/N1CCCCC1 | 116 |
| N#C/C(=C1C=C/C(=N/O)C(Br)=C/1)c1ccccc1 | 4.78 |
| CC1(c2ccc3ccccc3c2)CCC(=O)O1 (centres undefined) | 102 |
| N=C1N=C(N)CS1 | 105 |
| O=C(O)CSCc1nc2ccccc2[nH]1 | 109 |

Task item: Given N#C/C(=C/c1c(O)ccc2ccccc12)C(N)=O , state its recorded growth.
Reply: 93.4

Task item: Field entry: O=C(O)CN(CCN(CC(=O)O)CC(=O)O)CCN(CC(=O)O)CC(=O)O
Reply: 15

Task item: Field entry: N#CCCOc1ccccc1
Reply: 102

Task item: Field entry: O=CC(O)C(O)C(O)CO (centres undefined)
Reply: 105

Task item: Field entry: S=C1SCN(Cc2ccccc2)CN1Cc1ccccc1
Reply: 34.5

Task item: Field entry: Nc1ccc2ccc(N)cc2c1
Reply: 73.6

Task item: Field entry: CC1=CCC2CC1C2(C)C (centres undefined)
Reply: 35.4

* * *

Reported growth values for the following compounds.
Test system: M14 melanoma
Assay: NCI-60 one-dose screen, 48 h (100 = growth as untreated, 0 = no growth, -100 = all killed)
Details: 10 µM unless noted
Method: Growth inhibition of the M14 human tumor cell line is measured as a screen for anti-cancer activity. Cells are grown in 96 well plates and exposed to the test compound for 48 hours. Compounds are tested at a single concentration, which is 10^-5 M for most compounds. The reported endpoint is percent growth (GI% or GIPRCNT), where numbers from 0 - 100% represent growth inhibition, and numbers from -100% - 0 represent cell death. For example, a value of 40 represents 60% growth inhibition. […]
The panel holds about 83,000 compounds, 20% with a hit somewhere; the sample as a whole holds those more often.
A number alone suffices; assume %.

Study these solved cases before continuing.
| compound | measured attribute | observed |
| --- | --- | --- |
| CCN(CC)C(=O)c1cccnc1 | growth | 103 |
| Cc1cccc(/C=C\C(=O)c2ccccc2)c1 | growth | 98.5 |
| S=C1SCN(Cc2ccccc2)CN1Cc1ccccc1 | growth | 82.3 |
| CCOC(=O)C(CNc1ccccc1)C(=O)OCC | growth | 109 |
| CN(Cc1ccccc1)Cc1ccccc1 | growth | 102 |
| CC1=C(/C=C/C(C)=C/C=C/C(C)=C/C(=O)Nc2ccc(O)cc2)C(C)(C)CCC1 | growth | 53.5 |

Task item: Field: growth (M14 melanoma). Entry: Oc1ccccc1C=NCC1CCC(CN=Cc2ccccc2O)CC1 (stereo not drawn)
Reply: 98.8

Task item: Field entry: CC(O)Cn1cnc2c1c(=O)n(C)c(=O)n2C (stereo not drawn)
Reply: 104

Task item: Field entry: NC(=S)NS(=O)(=O)c1ccc(N)cc1
Reply: 106

Task item: Field entry: Cc1n[nH]c(=O)n(/N=C\c2c[nH]c3ccccc23)c1=O
Reply: 121

Task item: Field entry: c1ccc(NCc2ccc3c(c2)OCO3)cc1
Reply: 101

Task item: Field entry: Nc1ccccc1SC1CC(=O)N(c2cccc3ccccc23)C1=O (stereo not drawn)
Reply: 105

Task item: Field entry: Nc1ccc2[nH]c(-c3ccccc3)cc(=O)c2c1
Reply: 70.6

Data origin: PubChem BioAssay (NCI)
